MEASURED TARGET: UniProtKB Q9NTG7
Sequence (Q9NTG7 whole entry): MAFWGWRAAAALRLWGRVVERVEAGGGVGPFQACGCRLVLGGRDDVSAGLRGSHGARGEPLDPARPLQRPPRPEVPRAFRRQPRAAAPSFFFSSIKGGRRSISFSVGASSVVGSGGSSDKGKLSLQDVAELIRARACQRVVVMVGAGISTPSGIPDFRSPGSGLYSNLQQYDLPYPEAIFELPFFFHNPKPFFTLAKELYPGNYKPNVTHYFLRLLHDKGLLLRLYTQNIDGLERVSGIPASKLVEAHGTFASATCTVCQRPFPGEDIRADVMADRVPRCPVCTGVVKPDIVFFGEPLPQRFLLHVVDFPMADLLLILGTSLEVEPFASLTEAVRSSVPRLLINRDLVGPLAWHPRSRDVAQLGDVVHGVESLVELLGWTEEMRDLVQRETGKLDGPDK
ASSAY PROCEDURE: Inhibition of human recombinant N-terminally 6X-His-tagged SIRT3 at 50 uM after 4 hrs in presence of NAD+ by fluorescent deacetylase assay
RESULT TYPE: inhibition

Sample answers from the record:
> print(dat)
                                smiles.repr  observed
1  O=C1Nc2c(ccc(Cl)c2Cl)/C1=C/c1ccc(C(F)(F)F)cc1     < 10%
2       O=C1Nc2c(ccc(Cl)c2Cl)/C1=C\c1ccncc1     < 10%
3       O=C1Nc2c(ccc(Cl)c2Cl)/C1=C\c1ccccn1     < 10%
4  O=C1Nc2c(ccc(Cl)c2Cl)/C1=C/c1cc(C(F)(F)F)cc(C(F)(F)F)c1     < 10%

Kindly consider the entry below.
get_value(item= "CCN(CC)CCNC(=O)c1c(C)[nH]c(/C=C2\C(=O)Nc3ccc(F)cc32)c1C" , readout=inhibition) returns 26.4%

----------
MEASURED TARGET: NAD-dependent protein deacetylase sirtuin-1 (Homo sapiens) (UniProt Q96EB6)
Sequence (Q96EB6 whole entry): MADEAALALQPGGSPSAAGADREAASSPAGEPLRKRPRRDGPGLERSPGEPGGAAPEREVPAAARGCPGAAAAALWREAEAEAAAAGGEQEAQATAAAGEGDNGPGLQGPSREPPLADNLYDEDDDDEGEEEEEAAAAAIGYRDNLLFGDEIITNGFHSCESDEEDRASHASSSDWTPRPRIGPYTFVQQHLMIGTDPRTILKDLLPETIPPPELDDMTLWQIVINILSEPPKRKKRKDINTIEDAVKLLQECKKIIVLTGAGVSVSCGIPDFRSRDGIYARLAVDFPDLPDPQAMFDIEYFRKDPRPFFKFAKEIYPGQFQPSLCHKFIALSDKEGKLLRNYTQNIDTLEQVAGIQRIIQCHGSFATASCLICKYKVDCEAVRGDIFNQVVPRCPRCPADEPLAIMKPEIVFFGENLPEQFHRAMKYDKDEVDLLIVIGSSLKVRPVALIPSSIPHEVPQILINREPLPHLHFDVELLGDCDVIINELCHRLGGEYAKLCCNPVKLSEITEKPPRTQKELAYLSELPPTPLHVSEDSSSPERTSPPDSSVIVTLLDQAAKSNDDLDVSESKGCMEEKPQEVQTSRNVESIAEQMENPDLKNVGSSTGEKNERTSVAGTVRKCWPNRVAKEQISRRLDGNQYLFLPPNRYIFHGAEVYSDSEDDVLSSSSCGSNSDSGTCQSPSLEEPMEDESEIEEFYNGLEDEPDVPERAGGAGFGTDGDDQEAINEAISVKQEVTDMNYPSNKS
ASSAY PROCEDURE: Inhibition of human recombinant N-terminally GST-tagged SIRT1 at 50 uM after 4 hrs in presence of NAD+ by fluorescent deacetylase assay
RESULT TYPE: inhibition (%)

> print(dat)
                           smiles.repr                           measured.target  result.type  observed
1  O=C1Nc2c(ccc(Cl)c2Cl)/C1=C\c1ccccn1  NAD-dependent protein deacetylase sirtuin-1 (Homo sapiens) (UniProt Q96EB6)   inhibition      22.7

P = O=C1Nc2c(ccc(Cl)c2Cl)/C1=C/c1ccc([N+](=O)[O-])cc1
Q = O=C1Nc2c(ccc(Cl)c2Cl)/C1=C\c1ccncc1
R = O=C1Nc2c(ccc(Cl)c2Cl)/C1=C/c1ccc(C(F)(F)F)cc1
QUERY: Put the entries in order of inhibition, starting with the largest number. Show the ranking through the labels, in the order asked for.
RESULT: R, P, Q

----------
MEASURED TARGET: NAD-dependent protein deacetylase sirtuin-1 (Homo sapiens) (UniProt Q96EB6)
ASSAY PROCEDURE: Inhibition of human recombinant N-terminally GST-tagged SIRT1 at 50 uM after 4 hrs in presence of NAD+ by fluorescent deacetylase assay
RESULT TYPE: inhibition (%)

> print(dat)
                                smiles.repr  result.type  u  observed
1  O=C1Nc2c(ccc(Cl)c2Cl)/C1=C/c1cc(C(F)(F)F)cc(C(F)(F)F)c1   inhibition  %      19.8
2  Cc1cc(C)c(/C=C2\C(=O)Nc3c2ccc(Cl)c3Cl)[nH]1   inhibition  %      19.9
3  CN(C)c1ccc(/C=C2\C(=O)Nc3c2ccc(Cl)c3Cl)cc1   inhibition  %      20.7
4    O=C1Nc2c(ccc(Cl)c2Cl)/C1=C/c1ccc(F)cc1   inhibition  %      24.4

----------
MEASURED TARGET: NAD-dependent protein deacetylase sirtuin-1 (Homo sapiens) (UniProt Q96EB6)
ASSAY PROCEDURE: Inhibition of human recombinant N-terminally GST-tagged SIRT1 at 50 uM after 4 hrs in presence of NAD+ by fluorescent deacetylase assay
The entries below are paired with their reported inhibition.

> print(dat)
                                   compound  observed
1  Cn1c2c(Cl)c(Cl)ccc2c2cc[nH]c(=O)c21 [BAUERINE C]     < 10%
2  CCN(CC)CCNC(=O)c1c(C)[nH]c(/C=C2\C(=O)Nc3ccc(F)cc32)c1C [SUNITINIB]     < 10%
3  COc1cc(/C=C2\C(=O)Nc3c2ccc(Cl)c3Cl)cc(OC)c1OC     < 10%

Kindly consider the entry below.
get_value(item= "O=C1Nc2c(ccc(Cl)c2Cl)/C1=C/c1ccc(O)cc1" , readout=inhibition) returns < 10%

Cited source: ChEMBL document CHEMBL1156803
